Target: T1, human VEGF (human, UniProt P15692 207-395, biotinylated (site not stated))
T1 construct: Biotinylated human VEGF generated internally; also called hVEGF; hVEGF-biotin
T1 sequence: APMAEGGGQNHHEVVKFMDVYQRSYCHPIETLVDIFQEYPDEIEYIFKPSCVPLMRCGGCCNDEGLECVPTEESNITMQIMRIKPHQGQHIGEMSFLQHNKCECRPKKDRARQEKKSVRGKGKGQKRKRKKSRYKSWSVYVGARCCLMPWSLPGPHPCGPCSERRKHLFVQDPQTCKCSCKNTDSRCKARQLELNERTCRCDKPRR
Assay: Biacore SPR, hVEGF
measurement-name: Kd (nM)

{"columns": ["binder", "measurement-name", "measure-unit", "measurement"],
 "data": [
  ["HC1.1T (Fab, V domains shown, Tagged heavy chain CDR variant HC1.1 with NVS4 light chain) VH: EVQLVESGGGLVQPGGSLRLSCTASGFSLTSYYYMTWVRQAPGKGLEWVGFIDPQNNPYYATWAKGRFTISRDNSKNTLYLQMNSLRAEDTAVYYCAGGDHNSGWGLNIWGQGTLVTVSS VL: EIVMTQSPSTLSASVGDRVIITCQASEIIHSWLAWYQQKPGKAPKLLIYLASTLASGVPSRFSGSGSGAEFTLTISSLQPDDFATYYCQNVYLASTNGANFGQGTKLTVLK", "Kd", "nM", 0.0779],
  ["NVS4 heavy chain variant D108N (Fab, V domains shown, CDR variant of NVS4) VH: EVQLVESGGGLVQPGGSLRLSCTASGFSLTDYYYMTWVRQAPGKGLEWVGFIDPDDDPYYATWAKGRFTISRDNSKNTLYLQMNSLRAEDTAVYYCAGGDHNSGWGLNIWGQGTLVTVSS VL: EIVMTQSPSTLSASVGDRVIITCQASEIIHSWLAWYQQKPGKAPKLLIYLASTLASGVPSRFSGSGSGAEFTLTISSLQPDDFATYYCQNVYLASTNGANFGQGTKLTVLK", "Kd", "nM", 0.00985],
  ["HC8T (Fab, V domains shown, Tagged heavy chain CDR variant HC8 with NVS4 light chain) VH: EVQLVESGGGLVQPGGSLRLSCTASGFSLTKYYYMTWVRQAPGKGLEWVGFIKPDKKPKYATWAKGRFTISRDNSKNTLYLQMNSLRAEDTAVYYCAGGDHNSGWGLDIWGQGTLVTVSS VL: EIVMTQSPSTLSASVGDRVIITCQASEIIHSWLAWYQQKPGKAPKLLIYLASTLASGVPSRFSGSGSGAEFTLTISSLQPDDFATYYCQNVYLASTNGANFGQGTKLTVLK", "Kd", "nM", 0.948]
]}

Entry source: patent US20170290876A1
